target: LF-LDL (LDL subfraction particle; ApoB100 lipoprotein) (UniProt P04114); assay: SPRi; conditions: 5' disulfide, aptamer on gold chip, 10 mM HEPES, 120 mM NaCl, 10 mM KCl, 5 mM MgCl2, pH 7.4, targets in PBS with 0.1% Tween, random-DNA signal subtracted, temperature …
Sequence (P04114 whole entry): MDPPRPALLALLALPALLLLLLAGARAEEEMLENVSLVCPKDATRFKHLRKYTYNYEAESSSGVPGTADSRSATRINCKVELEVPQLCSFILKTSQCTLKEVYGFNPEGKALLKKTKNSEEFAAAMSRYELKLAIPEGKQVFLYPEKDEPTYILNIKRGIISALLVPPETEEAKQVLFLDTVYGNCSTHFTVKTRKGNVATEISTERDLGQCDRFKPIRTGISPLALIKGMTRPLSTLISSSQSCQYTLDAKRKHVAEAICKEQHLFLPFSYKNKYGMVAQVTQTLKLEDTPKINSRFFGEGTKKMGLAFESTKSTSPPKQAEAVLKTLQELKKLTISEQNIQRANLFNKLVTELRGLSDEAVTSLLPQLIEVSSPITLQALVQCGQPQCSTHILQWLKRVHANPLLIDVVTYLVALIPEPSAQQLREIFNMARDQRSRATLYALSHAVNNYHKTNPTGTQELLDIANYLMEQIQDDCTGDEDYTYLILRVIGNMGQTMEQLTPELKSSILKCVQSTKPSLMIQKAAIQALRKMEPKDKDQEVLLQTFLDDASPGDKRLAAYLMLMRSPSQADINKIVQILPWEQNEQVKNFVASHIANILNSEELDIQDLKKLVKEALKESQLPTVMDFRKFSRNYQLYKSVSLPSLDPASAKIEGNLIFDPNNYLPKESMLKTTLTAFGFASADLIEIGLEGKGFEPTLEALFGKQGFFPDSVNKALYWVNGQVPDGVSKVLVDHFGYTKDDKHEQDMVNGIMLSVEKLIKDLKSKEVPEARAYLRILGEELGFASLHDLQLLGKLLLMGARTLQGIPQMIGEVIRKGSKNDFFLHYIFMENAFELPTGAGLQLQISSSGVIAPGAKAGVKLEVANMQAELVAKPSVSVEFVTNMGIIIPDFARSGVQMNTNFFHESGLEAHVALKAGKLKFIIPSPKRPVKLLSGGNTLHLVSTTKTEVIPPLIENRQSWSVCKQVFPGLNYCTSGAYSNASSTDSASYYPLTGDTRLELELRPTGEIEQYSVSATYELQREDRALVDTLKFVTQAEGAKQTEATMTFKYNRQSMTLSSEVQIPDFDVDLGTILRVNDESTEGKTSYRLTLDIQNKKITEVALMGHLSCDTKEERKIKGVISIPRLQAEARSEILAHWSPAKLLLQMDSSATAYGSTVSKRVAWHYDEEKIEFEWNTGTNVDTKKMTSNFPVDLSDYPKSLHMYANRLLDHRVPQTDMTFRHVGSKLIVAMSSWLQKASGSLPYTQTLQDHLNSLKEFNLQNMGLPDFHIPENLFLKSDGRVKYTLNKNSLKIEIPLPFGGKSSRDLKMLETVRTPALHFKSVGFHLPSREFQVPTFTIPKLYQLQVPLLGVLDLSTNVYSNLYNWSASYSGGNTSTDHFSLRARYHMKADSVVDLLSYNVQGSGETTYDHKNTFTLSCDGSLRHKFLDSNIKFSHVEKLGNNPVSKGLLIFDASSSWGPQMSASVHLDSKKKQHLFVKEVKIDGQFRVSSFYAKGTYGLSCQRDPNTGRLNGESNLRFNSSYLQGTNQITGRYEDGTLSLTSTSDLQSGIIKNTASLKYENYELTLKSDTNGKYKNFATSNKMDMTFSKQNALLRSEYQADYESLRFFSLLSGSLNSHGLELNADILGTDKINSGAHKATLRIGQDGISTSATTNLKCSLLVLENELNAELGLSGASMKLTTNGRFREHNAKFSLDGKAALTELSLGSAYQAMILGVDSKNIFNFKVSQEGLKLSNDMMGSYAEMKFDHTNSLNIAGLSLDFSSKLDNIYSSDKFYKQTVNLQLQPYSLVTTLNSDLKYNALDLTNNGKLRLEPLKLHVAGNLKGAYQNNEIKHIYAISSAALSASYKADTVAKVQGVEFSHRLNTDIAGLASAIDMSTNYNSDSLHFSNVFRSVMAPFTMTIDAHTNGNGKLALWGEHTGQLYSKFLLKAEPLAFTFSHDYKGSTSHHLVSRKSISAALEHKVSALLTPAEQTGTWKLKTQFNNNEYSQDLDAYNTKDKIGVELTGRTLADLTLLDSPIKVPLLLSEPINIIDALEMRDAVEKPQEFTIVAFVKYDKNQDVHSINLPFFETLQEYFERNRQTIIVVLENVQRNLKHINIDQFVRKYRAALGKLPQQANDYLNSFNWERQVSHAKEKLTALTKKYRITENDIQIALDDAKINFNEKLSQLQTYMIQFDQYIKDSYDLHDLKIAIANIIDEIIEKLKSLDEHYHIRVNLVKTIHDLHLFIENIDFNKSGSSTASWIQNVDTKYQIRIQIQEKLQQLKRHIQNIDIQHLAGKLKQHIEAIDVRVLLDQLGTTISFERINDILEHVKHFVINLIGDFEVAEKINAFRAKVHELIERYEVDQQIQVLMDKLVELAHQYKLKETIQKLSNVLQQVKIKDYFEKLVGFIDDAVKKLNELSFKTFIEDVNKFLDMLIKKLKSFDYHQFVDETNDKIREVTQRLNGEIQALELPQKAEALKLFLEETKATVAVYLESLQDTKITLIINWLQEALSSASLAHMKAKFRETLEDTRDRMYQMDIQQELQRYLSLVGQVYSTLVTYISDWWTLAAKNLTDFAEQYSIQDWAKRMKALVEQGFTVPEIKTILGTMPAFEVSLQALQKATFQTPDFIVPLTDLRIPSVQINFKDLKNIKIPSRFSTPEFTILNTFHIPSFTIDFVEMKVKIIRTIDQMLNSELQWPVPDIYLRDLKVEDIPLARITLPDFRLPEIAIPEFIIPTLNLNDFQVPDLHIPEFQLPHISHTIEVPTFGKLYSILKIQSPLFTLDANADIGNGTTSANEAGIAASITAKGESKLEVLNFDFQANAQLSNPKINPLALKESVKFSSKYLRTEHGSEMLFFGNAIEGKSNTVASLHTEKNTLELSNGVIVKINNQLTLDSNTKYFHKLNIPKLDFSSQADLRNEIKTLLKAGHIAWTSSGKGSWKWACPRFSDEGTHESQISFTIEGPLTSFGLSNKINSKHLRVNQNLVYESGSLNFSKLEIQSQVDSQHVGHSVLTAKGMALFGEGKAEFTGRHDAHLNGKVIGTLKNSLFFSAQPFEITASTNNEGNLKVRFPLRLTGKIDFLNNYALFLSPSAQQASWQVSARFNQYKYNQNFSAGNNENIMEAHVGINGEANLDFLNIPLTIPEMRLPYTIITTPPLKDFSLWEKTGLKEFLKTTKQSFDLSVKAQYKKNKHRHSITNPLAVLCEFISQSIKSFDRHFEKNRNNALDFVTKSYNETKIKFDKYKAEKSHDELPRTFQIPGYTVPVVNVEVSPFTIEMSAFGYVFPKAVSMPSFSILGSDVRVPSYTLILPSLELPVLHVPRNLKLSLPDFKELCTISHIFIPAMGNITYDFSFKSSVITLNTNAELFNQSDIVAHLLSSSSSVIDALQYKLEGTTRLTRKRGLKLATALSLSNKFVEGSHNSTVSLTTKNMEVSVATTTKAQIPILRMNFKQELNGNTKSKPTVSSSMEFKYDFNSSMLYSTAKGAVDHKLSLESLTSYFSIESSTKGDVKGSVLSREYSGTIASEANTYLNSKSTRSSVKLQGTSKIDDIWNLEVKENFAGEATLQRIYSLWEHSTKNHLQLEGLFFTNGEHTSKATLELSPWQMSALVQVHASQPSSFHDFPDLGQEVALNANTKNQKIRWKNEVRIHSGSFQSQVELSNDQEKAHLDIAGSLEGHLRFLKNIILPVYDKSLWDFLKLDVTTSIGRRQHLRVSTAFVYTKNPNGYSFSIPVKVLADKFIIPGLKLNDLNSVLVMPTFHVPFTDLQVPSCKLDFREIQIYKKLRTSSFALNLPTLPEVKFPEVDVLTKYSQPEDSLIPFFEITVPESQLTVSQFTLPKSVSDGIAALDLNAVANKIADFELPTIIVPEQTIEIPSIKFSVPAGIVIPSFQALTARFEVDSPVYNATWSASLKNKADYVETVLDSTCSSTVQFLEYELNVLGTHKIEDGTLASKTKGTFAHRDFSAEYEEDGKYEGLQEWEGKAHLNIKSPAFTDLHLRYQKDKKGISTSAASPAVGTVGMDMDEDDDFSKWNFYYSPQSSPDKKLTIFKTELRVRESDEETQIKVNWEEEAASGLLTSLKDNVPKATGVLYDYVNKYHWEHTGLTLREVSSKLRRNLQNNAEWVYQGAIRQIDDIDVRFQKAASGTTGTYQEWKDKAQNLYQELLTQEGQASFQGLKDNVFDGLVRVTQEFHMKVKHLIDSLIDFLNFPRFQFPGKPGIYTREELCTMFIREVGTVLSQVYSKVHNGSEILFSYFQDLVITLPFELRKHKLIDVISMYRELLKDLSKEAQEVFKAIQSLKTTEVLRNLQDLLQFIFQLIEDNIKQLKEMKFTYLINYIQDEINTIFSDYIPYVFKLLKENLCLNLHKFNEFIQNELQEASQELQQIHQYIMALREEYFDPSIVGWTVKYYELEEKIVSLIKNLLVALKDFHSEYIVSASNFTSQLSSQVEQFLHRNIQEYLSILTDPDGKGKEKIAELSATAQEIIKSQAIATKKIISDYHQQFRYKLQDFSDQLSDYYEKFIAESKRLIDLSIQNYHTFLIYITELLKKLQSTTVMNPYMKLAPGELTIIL
Overview of recorded Kd for various sequences
Write down the value, and be sure its unit follows.

Query: What reported Kd corresponds to AACTACATGGTATGTGGTGAACTACCTCGATTTTATATTATTTCGCTTACCAACAACTGCAGAGACGTACAATGTACCC [LDL-A1] on LF-LDL (LDL subfraction particle; ApoB100 lipoprotein) (UniProt P04114)?
Response: 32.7 pM

Query: What reported Kd corresponds to AACTACATGGTATGTGGTGAACTGTCAGCTTCTTCTATATAATTCACCTTGCCTCTCGTTCCTGACGTACAATGTACCC [LDL-A2] on LF-LDL (LDL subfraction particle; ApoB100 lipoprotein) (UniProt P04114)?
Response: 15.9 pM

Values compiled from paper PMC6181373.
